assayTarget: human RORγt ligand binding domain (RORγt LBD) (Homo sapiens, UniProt P51449)
Construct: His-tag (N); TurboTEV protease cleavage site (ENLYFQG) (N)
Sequence (P51449 with tags, fused parts or gaps): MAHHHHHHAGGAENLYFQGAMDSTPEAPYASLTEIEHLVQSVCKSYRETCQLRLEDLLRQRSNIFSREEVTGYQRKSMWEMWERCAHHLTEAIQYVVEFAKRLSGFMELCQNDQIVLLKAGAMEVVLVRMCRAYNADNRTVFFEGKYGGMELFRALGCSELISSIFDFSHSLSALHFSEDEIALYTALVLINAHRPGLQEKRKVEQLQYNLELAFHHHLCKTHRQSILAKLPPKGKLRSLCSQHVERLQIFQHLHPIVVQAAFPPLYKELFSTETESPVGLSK
runDescription: RORγt ThermoFluor assay (thermal shift, ligand binding affinity)
measurementContext: estimated from concentration response of thermal shift
pKd: −log10 of the molar value.
Tag: label 1 if measured pKd is not below 6, label 0 if it is.

Past entries and their recorded results:
COc1nc2c(C)cc(C(O)(c3ccc(C(F)(F)F)nc3)c3cncn3C)cc2c(C#N)c1-c1cccc(F)c1 (single isomer, unassigned) [Example 179b] ... label 0
CN1CCN(c2nc3ccc(C(O)(c4ccncc4)c4cncn4C)cc3c(Cl)c2-c2ccccc2)CC1 (stereo not shown) ... label 0
COc1cccc(C(O)(c2cccnc2)c2ccc3ncc(-c4ccccc4)c(Cl)c3c2)c1 (stereo not shown) ... label 0
CC(=O)N1CCC(C(O)(c2cccnc2)c2ccc3nc(Cl)c(-c4ccccc4)c(Cl)c3c2)CC1 (stereo not shown) ... label 1
CN(C)c1c(-c2ccccc2)c(Cl)nc2ccc(C(O)(c3cccnc3)c3ccccc3Cl)cc12 (stereo not shown) ... label 0
Cn1cncc1C(O)(c1ccncc1)c1cc(F)c2nc(Cl)c(-c3ccccc3)c(Cl)c2c1 (stereo not shown) ... label 1

Here is another compound to look at.
Query: Form field: pKd at least 6? Entry: COCCN(C)c1nc2ccc(C(O)(c3ccncc3)c3cncn3C)cc2c(Cl)c1-c1ccccc1 (stereo not shown)
Response: label 1
